# test.details: NCI Yeast Anticancer Drug Screen. Data for the mgt1 strain (AID 153)
# condition.description: S. cerevisiae mgt1 mutant growth inhibition; at 3.7 µM; hits give high values
The panel holds about 79,000 compounds, 15% with a hit somewhere; the sample as a whole holds those more often.
Attribute: growth inhibition
Hi! Could you send only the number? It should be in %, unit omitted.

Example results:
# molecule, growth inhibition, %
measured = [
    ("CCN(CC)CCNc1ccc2ncn3c4ccc(O)cc4c(=O)c1c23", -6),
    ("CC(=O)NC(c1nc2cc(C)c(C)cc2[nH]1)c1nc2cc(C)c(C)cc2[nH]1", 19),
    ("CC(=O)/C(=C\\c1ccc(Cl)c(Cl)c1)C(=O)C(C)CN(C)C (centres undefined)", -2),
    ("CCOC(=O)/C(=C\\c1cccc(C)c1)C(C)=O", 3),
    ("CC(C)[Si]1(C(C)C)OCC2OC(n3cnc4c(N)ncnc43)C(N)C2O[Si](C(C)C)(C(C)C)O1 (centres undefined)", 16),
    ("O=C1C(=C2CCCC2)CCC1CN1CCCCC1 (centres undefined)", 5),
]

Could you tell me which growth inhibition is on file for CC12CCC(CC(=O)/C1=C(/Br)I)C2(C)C (centres undefined) ?
-2

Same read-out for `CC(C)(C)c1ccc2c(c1)C(=O)c1ccccc1C2=O` ?
-9

Also need `CNC(=S)N/N=C(/C)CCC/C(C)=N/NC(=S)NC` , thanks.
12

Subsequent entry: `NC(N)=NS(=O)(=O)c1ccc(Nc2c3ccccc3nc3c(C(=O)NC(CO)(CO)CO)cccc23)cc1`
-1

// same read-out, input: `CC(C)OP(=O)(OC(C)C)C(=NCCO)NNc1ccc([N+](=O)[O-])cc1`
-34
